Kindly supply the reported Percent cleavage values for the records listed here.
# testedTarget: AxCT mask27 EGFR EH104 L072 version 1
Give bare numbers, in %.

For Neutrophil Elastase (protein) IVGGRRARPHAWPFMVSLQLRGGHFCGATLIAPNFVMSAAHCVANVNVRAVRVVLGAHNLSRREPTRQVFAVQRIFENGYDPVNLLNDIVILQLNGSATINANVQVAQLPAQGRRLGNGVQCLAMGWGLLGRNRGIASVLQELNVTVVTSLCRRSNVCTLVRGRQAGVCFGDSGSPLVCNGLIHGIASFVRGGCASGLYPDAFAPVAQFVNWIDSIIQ the protein record lists Percent cleavage as 10

Now for another entry.
For Matriptase (protein) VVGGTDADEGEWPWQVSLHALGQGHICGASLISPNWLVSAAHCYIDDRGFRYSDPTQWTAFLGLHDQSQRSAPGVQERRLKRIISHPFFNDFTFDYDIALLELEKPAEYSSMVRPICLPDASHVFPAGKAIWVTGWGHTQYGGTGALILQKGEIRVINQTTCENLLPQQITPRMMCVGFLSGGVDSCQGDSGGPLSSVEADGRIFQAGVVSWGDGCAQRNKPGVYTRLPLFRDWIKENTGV the protein record lists Percent cleavage as 0
